What follows is literature data on Ki for UniProtKB Q9JIA2.
Measured attribute: Ki (nM)

>  <Compound>
CNCCC(Oc1ccccc1OC)c1ccccc1 (stereo not given)

>  <Reported measurement>
5.74

$$$$

1. NCCc1ccc(O)c(O)c1
2. CN1Cc2c(N)cccc2[C@H](c2ccccc2)C1
3. CNCCC=C1c2ccccc2CCc2ccccc21
input: List by increasing Ki. Reply with the item labels sorted in the order that was asked for.
output: 2, 3, 1
(2: 15.9 nM, 3: 25 nM, 1: 392 nM)
